- System tested: HLA-DR DRB1*0802 (human)
- Method notes: competition with 125I-labelled peptide for purified HLA-DR
pIC50: −log10 of the molar value.
Quantity kind: pIC50

Binder | Reported measurement
RREVHIYYLEKANKI (modifications not checked) [Flu.PA.127] | 7.02
